These measurements were taken from PubChem BioAssay.

# methodDescription: basal MM1S mitochondrial membrane potential changes, profiling panel, cell-based, JC-1 fluorescence, 24 h, 100 nL compound (AID 1170); further: test concentration not given here
# experimentalConditions: higher = more signal

smilesCode | z-score
CCN1C(=O)[C@H]2[C@H]3[C@H](O)[C@H](O)CC(=NOC[C@@H](O)[C@H]4O[C@@H]5OC(C)(C)O[C@@H]5[C@H]4O)[C@@H]3CC[C@H]2C1=O | -0.481
C=CC[C@@H]1C=C[C@H](ON=CC[C@@H]2C=C[C@H](OC(C)=O)[C@@H](COC(C)=O)O2)[C@@H](CO)O1 | -0.838
CO[C@@H]1COC(=O)[C@H](COCc2ccccc2)NC(=O)CC=C[C@@H](C)[C@H](OC)COC(=O)[C@@H](C)NC(=O)CC=C[C@H]1C | -0.343

---

# methodDescription: small-molecule binders of probe aNOTCH2, primary screen, biochemical, small-molecule microarray, 635/667 nm fluorescence (AID 1121);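 further: score merges feature fluorescence read at 667 nm with its signal to noise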
# experimentalConditions: higher = more signal

molecule | composite z-score
COC(=O)[C@H](C)NC(=O)CCC1CC(OC(=O)NCc2cccc3ccccc23)CC2(CCCC(COC(=O)NCc3ccccc3)O2)O1 (some centres undefined) | -0.104
O=C1[C@H]2CCn3c(=O)n(Cc4cc5c(cc4Cl)OCO5)c(=O)n3[C@H]2[C@H](O)[C@@H]2O[C@H]12 | -0.14
C[C@H]1CC[C@@H](C(=O)O)N[C@@H]1c1cccc(N2CCCC2=O)c1 | -0.14
CC(C)=CCCC(C)=CCON=C1C[C@@H](O)[C@@H](O)[C@@H]2[C@@H]3C(=O)N(Cc4ccc5c(c4)OCO5)C(=O)[C@@H]3CC[C@@H]12 | -0.0811

---

# methodDescription: small-molecule microarray binders of probe aNog, primary screen, biochemical, biotinylated probe, 635/667 nm fluorescence (AID 1115);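 further: probe is biotinylated aNog protein used at 0.15 µg/mL for 1 h at 4 C; z-score combines 667 nm fluorescence of each spot with its signal to noise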
# experimentalConditions: higher = more signal
Binary call on composite z-score: true (1) from -0.08 upward, false (0) beneath that.

compound | category
CON=C(C)CCN1CCCc2nc(C)c(C)cc21 | true (1)
O=C1[C@H]2[C@H]3[C@H](O)[C@H](O)CC(=NO[C@@H]4O[C@H](CO)[C@@H](O)[C@H](O)[C@H]4O)[C@@H]3CC[C@H]2C(=O)N1C1CCCCC1 | false (0)
O=C1[C@H]2[C@H]3[C@H](O)[C@H](O)CC(=NOCc4ccccc4)[C@H]3CC[C@H]2C(=O)N1C1CCCCC1 | true (1)
COC(=O)[C@H](C)NC(=O)CCC1CC(OC(=O)NCc2cccc3ccccc23)CC2(CCCC(COC(=O)NCCc3ccccc3OC)O2)O1 (stereo not given in full) | true (1)

---

# methodDescription: small-molecule microarray binders of probe aShh, primary screen, biochemical, biotinylated probe, 635/667 nm fluorescence (AID 1114);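 further: probe is biotin-labelled aShh protein from a stem cell growth factor screen; measures binding of labelled protein to compounds printed on the slide; score merges feature fluorescence at 667 nm with signal-to-noise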
# experimentalConditions: higher = more signal
readout: composite z-score

compound | quantitativeResult
CCOC(=O)NN=C1C[C@@H](O)[C@@H](O)[C@@H]2[C@@H]3C(=O)N(CC)C(=O)[C@@H]3CC[C@H]12 | -0.0813
O=C1[C@H]2[C@H]3[C@H](O)[C@H](O)CC(=NOC[C@@H](O)COCc4ccco4)[C@@H]3CC[C@H]2C(=O)N1Cc1ccc2c(c1)OCO2 | -0.123
CCCNC(=O)OC[C@H]1O[C@H](CCON=C2c3cc(OC)ccc3O[C@H](c3cccc(OC)c3)[C@H]2O)C=C[C@@H]1Oc1ccc(OC)cc1 | -0.0035
CCOC(=O)CCN1C(=O)[C@H]2[C@H]3[C@H](O)[C@H](O)CC(=NO[C@@H]4O[C@H](CO)[C@@H](O)[C@H](O)[C@H]4O)[C@@H]3CC[C@H]2C1=O | 0.296
O=C1[C@H]2[C@H]3[C@H](O)[C@H](O)CC(=NOC[C@@H](O)COCc4ccco4)[C@@H]3CC[C@H]2C(=O)N1C1CCCCC1 | -0.206
COC(=O)[C@H](C)NC(=O)CCC1CC(OC(=O)NCc2cccc3ccccc23)CC2(CCCC(COC(=O)NCc3cccc(C(F)(F)F)c3)O2)O1 (some centres undefined) | -0.138
CC(CCC(=O)OC[C@H]1O[C@H](C#Cc2ccccc2)C=C[C@@H]1Oc1ccc(C)cc1)=NOC(C)CN1CCCCc2nc(C)c(C)cc21 (some centres undefined) | -0.0626
CC(C)=NOC(C)CN1CCCCc2nc(C)c(C)cc21 (centres undefined) | -0.0769
CCN1C(=O)[C@H]2[C@H]3[C@H](O)[C@H](O)CC(=NOC[C@@H](O)COCc4ccco4)[C@H]3CC[C@H]2C1=O | -0.2
CC(C)(C)N1C(=O)[C@H]2[C@@H]3C(=CC[C@H]2C1=O)C(=O)[C@H]1O[C@H]1[C@H]3O | -0.273
C[C@]12CCC3c4ccc(OCC5CO5)cc4CCC3C1CC[C@@H]2O (some centres undefined) | 0.0062
C=CC[C@@H]1C=C[C@H](ON=C(C)CCN2CCCc3nc(C)c(C)cc32)[C@@H](CO)O1 | 0.586
C=CC[C@@H]1C=C[C@H](ON=C2C[C@@H](O)[C@@H](O)[C@@H]3[C@@H]4C(=O)N(CC)C(=O)[C@@H]4CC[C@@H]23)[C@@H](CO)O1 | 0.116
COC(=O)[C@H](C)NC(=O)CCC1CC(OC(=O)NCCc2ccc(F)cc2)CC2(CCCC(COC(=O)NCC3CCCCC3)O2)O1 (some centres undefined) | 0.0469
C[C@H]1C=CCC(=O)OC[C@H](C)C(=O)N2CCC[C@H]2C(=O)OC1 | -0.0709
COc1ccc(OC[C@H]2CN3[C@@H](CC[C@@H](C)[C@@H]3c3ccc(Br)cc3)C(=O)O2)cc1 | -0.221
CC(C)(C)N1C(=O)[C@H]2[C@H]3[C@H](O)[C@H](O)CC(=NNC(=O)OCc4ccccc4)[C@H]3CC[C@H]2C1=O | 0.0141
CC(=O)OC[C@H]1O[C@H](C#CCCc2ccccc2)C=C[C@@H]1OC(C)=O | 0.0204
CO[C@@H]1COC(=O)[C@H](CCSC)NC(=O)CC=C[C@@H](C)COC(=O)[C@@H]2CCCN2C(=O)CC=C[C@H]1C | 0.0278
CCOC(=O)CCN1C(=O)[C@H]2[C@H]3[C@H](O)[C@H](O)CC(=NOCC=C(C)CCC=C(C)C)[C@@H]3CC[C@H]2C1=O | -0.179
CCc1cc2c(nc1CC)CCN(CCC(C)=NOC[C@@H](C)[C@H](OCc1ccccc1)C(C)C)C2 | -0.0035
O=C1C2=CC[C@H]3C(=O)N(C4CCCCC4)C(=O)[C@H]3[C@H]2[C@H](O)[C@@H]2O[C@H]12 | -0.282
CC(=O)OC[C@H]1O[C@H](CC=NOC[C@@H](O)[C@H]2O[C@@H]3OC(C)(C)O[C@@H]3[C@H]2O)C=C[C@@H]1OC(C)=O | 0.179
CC(C)=NO[C@H](C)c1cn([C@@H]2COC[C@H]2O)nn1 | -0.138
